Target: Urotensin-2 receptor (Rattus norvegicus)
Assay: Antagonist activity against 1 uM human urotensin-2-induced contraction of rat aortic ring
Format: functional, tissue-based
Conditions: Aorta
Calls of active or inactive are those of the source. The rule behind the calls is not given here. Positions of bridges follow the written chain, without caps; N, C: chain ends. Non-standard residues stand in square brackets, D forms with d. Residues, ends and D or L forms follow the SMILES beside them. Tyr(3-I) = N[C@@H](Cc1ccc(O)c(I)c1)C(=O)O; Cha = N[C@@H](CC1CCCCC1)C(=O)O
result_type: Activity

INSERT INTO results (molecule, obs_value) VALUES
  ('CC(C)[C@H](NC(=O)[C@@H]1CSSC[C@H](NC(=O)[C@@H](N)CC(=O)O)C(=O)N[C@H](CC2CCCCC2)C(=O)N[C@@H](Cc2c[nH]c3ccccc23)C(=O)N[C@@H](CCCCN)C(=O)N[C@@H](Cc2ccc(O)cc2)C(=O)N1)C(=O)O', 'inactive'),
  ('CC(C)[C@H](NC(=O)[C@@H]1CSSC[C@H](NC(=O)[C@@H](N)CC(=O)O)C(=O)N[C@@H](CC2CCCCC2)C(=O)N[C@@H](Cc2c[nH]c3ccccc23)C(=O)N[C@@H](CCCCN)C(=O)N[C@@H](Cc2ccc(O)c(I)c2)C(=O)N1)C(=O)O (H-DC[Cha]WK[Tyr(3-I)]CV-OH; disulfide 2-7)', 'inactive'),
  ('CC(C)[C@H](NC(=O)[C@@H]1CSSC[C@H](NC(=O)[C@@H](N)CCC(=O)O)C(=O)N[C@@H](Cc2ccccc2)C(=O)N[C@@H](Cc2c[nH]c3ccccc23)C(=O)N[C@@H](CCCCN)C(=O)N[C@@H](Cc2ccc(O)cc2)C(=O)N1)C(=O)O (H-ECFWKYCV-OH; disulfide 2-7)', 'inactive');

* * *

Organism: Rattus norvegicus
Experiment: Agonist activity in rat aortic ring contraction assay
Assay type: functional
Conditions: Aorta
Positions of bridges follow the written chain, without caps; N, C: chain ends. Non-standard residues stand in square brackets, D forms with d. Residues, ends and D or L forms follow the SMILES beside them. Tyr(3-NO2) = N[C@@H](Cc1ccc(O)c([N+](=O)[O-])c1)C(=O)O; Phe(4-tBu) = CC(C)(C)c1ccc(C[C@H](N)C(=O)O)cc1; Tyr(3-I) = N[C@@H](Cc1ccc(O)c(I)c1)C(=O)O; Phe(4-NH2) = Nc1ccc(C[C@H](N)C(=O)O)cc1; Bta = N[C@@H](Cc1csc2ccccc12)C(=O)O; 2Thi = N[C@@H](Cc1cccs1)C(=O)O; Cha = N[C@@H](CC1CCCCC1)C(=O)O; NMeD = CN[C@@H](CC(=O)O)C(=O)O; Pen = CC(C)(S)[C@H](N)C(=O)O
result_type: pEC50
Give bare numbers, as −log10 of the molar value.

INSERT INTO assay_data (compound, obs_value) VALUES
  ('CC(C)[C@H](NC(=O)[C@@H]1CSSC[C@H](NC(=O)[C@@H](N)CC(=O)O)C(=O)N[C@@H](Cc2ccccc2)C(=O)N[C@@H](Cc2c[nH]c3ccccc23)C(=O)N[C@@H](CCCCN)C(=O)N[C@@H](Cc2ccc(N)cc2)C(=O)N1)C(=O)O (H-DCFWK[Phe(4-NH2)]CV-OH; disulfide 2-7)', 6.37),
  ('CC(C)[C@H](NC(=O)[C@@H]1CSSC[C@H](NC(=O)[C@H](C)N)C(=O)N[C@@H](CC2CCCCC2)C(=O)N[C@@H](Cc2c[nH]c3ccccc23)C(=O)N[C@@H](CCCCN)C(=O)N[C@@H](Cc2ccc(O)cc2)C(=O)N1)C(=O)O (H-AC[Cha]WKYCV-OH; disulfide 2-7)', 6.03),
  ('CC(C)[C@H](NC(=O)[C@@H]1CSSC(C)(C)[C@H](NC(=O)[C@@H](N)CC(=O)O)C(=O)N[C@@H](CC2CCCCC2)C(=O)N[C@@H](Cc2c[nH]c3ccccc23)C(=O)N[C@@H](CCCCN)C(=O)N[C@@H](Cc2ccc(O)cc2)C(=O)N1)C(=O)O (H-D[Pen][Cha]WKYCV-OH; disulfide 2-7)', 5.72),
  ('CC(C)[C@H](NC(=O)[C@@H]1CSSC[C@H](NC(=O)[C@@H](N)CC(=O)O)C(=O)N[C@@H](Cc2cccs2)C(=O)N[C@@H](Cc2c[nH]c3ccccc23)C(=O)N[C@@H](CCCCN)C(=O)N[C@@H](Cc2ccc(O)cc2)C(=O)N1)C(=O)O (H-DC[2Thi]WKYCV-OH; disulfide 2-7)', 8.05),
  ('CC(C)[C@H](NC(=O)[C@@H]1CSSC[C@H](NC(=O)[C@@H](N)CC(=O)O)C(=O)N[C@@H](CC2CCCCC2)C(=O)N[C@@H](Cc2c[nH]c3ccccc23)C(=O)N[C@@H](CCCCN)C(=O)N[C@@H](Cc2ccc(O)c(I)c2)C(=O)N1)C(=O)O (H-DC[Cha]WK[Tyr(3-I)]CV-OH; disulfide 2-7)', 6.45),
  ('CC(C)[C@H](NC(=O)[C@@H]1CSSC[C@H](NC(=O)[C@@H](N)CC(=O)O)C(=O)N[C@@H](Cc2ccccc2)C(=O)N[C@@H](Cc2c[nH]c3ccccc23)C(=O)N[C@@H](CCCCN)C(=O)N[C@@H](Cc2ccc(O)cc2)C(=O)N1)C(=O)O (H-DCFWKYCV-OH; disulfide 2-7)', 8.30);

# map each compound to its pEC50
1. CC(C)[C@H](NC(=O)[C@@H]1CSSC[C@H](NC(=O)[C@@H](N)CCC(=O)O)C(=O)N[C@@H](Cc2ccccc2)C(=O)N[C@@H](Cc2c[nH]c3ccccc23)C(=O)N[C@@H](CCCCN)C(=O)N[C@@H](Cc2ccc(O)cc2)C(=O)N1)C(=O)O (H-ECFWKYCV-OH; disulfide 2-7)
2. CN[C@@H](CC(=O)O)C(=O)N[C@H]1CSSC[C@@H](C(=O)N[C@H](C(=O)O)C(C)C)NC(=O)[C@H](Cc2ccc(O)cc2)NC(=O)[C@H](CCCCN)NC(=O)[C@H](Cc2c[nH]c3ccccc23)NC(=O)[C@H](Cc2ccccc2)NC1=O (H-[NMeD]CFWKYCV-OH; disulfide 2-7)
3. CC(C)[C@H](NC(=O)[C@@H]1CSSC[C@H](NC(=O)[C@@H](N)CC(=O)O)C(=O)N[C@@H](Cc2csc3ccccc23)C(=O)N[C@@H](Cc2c[nH]c3ccccc23)C(=O)N[C@@H](CCCCN)C(=O)N[C@@H](Cc2ccc(O)cc2)C(=O)N1)C(=O)O (H-DC[Bta]WKYCV-OH; disulfide 2-7)
4. CC(C)[C@H](NC(=O)[C@@H]1CSSC[C@H](NC(=O)[C@@H](N)CC(=O)O)C(=O)N[C@@H](Cc2ccc(C(C)(C)C)cc2)C(=O)N[C@@H](Cc2c[nH]c3ccccc23)C(=O)N[C@@H](CCCCN)C(=O)N[C@@H](Cc2ccc(O)cc2)C(=O)N1)C(=O)O (H-DC[Phe(4-tBu)]WKYCV-OH; disulfide 2-7)
5. CC(C)[C@H](NC(=O)[C@@H]1CSSC[C@H](NC(=O)[C@@H](N)CC(=O)O)C(=O)N[C@@H](Cc2ccccc2)C(=O)N[C@@H](Cc2c[nH]c3ccccc23)C(=O)N[C@@H](CCCCN)C(=O)N[C@@H](Cc2ccc(O)c([N+](=O)[O-])c2)C(=O)N1)C(=O)O (H-DCFWK[Tyr(3-NO2)]CV-OH; disulfide 2-7)

### Response
[8.32, 8.22, 6.54, 8.39, 8.01]

src = ChEMBL document CHEMBL1137360
